- measurement target: mouse VISTA (mVISTA) (Mus musculus, UniProt Q9D659)
- Construct: expressed in transfected cells; host or cells: Human embryonic kidney 293T cells
- Sequence (Q9D659 33-308): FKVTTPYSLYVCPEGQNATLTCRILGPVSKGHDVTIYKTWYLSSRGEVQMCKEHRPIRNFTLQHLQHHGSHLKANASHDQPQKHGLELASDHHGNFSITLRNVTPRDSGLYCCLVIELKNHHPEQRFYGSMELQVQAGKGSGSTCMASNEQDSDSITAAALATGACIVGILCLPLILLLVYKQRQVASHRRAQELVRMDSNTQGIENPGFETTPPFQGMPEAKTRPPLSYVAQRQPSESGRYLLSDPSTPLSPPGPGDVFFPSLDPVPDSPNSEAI
- protocol details: Cell-Based Binding High-Content Assay For mVISTA (HC CBA mVISTA)
- condition summary: 293T cells expressing mouse VISTA; competition with biotinylated peptide (2 nM); read-out: HC CBA mVISTA IC50
Positions of bridges follow the written chain, without caps; N, C: chain ends. Non-standard residues stand in square brackets, D forms with d. Residues, ends and D or L forms follow the SMILES beside them. Cit = NC(=O)NCCC[C@H](N)C(=O)O; Ahp(2) = CCCCC[C@H](N)C(=O)O; NHexGly = CCCCCCNCC(=O)O

[
  {
    "compound": "CCCCCCN1CC(=O)N[C@@H](Cc2ccc(O)cc2)C(=O)N[C@@H](CC(C)C)C(=O)N[C@@H](CC(N)=O)C(=O)N[C@@H](CCCNC(=N)N)C(=O)N[C@@H](CC(C)C)C(=O)N[C@@H](CCCCC)C(=O)N2CCC[C@H]2C(=O)N[C@@H](C(C)C)C(=O)N[C@@H](CCCNC(=N)N)C(=O)N[C@H](C(=O)NCC(=O)O)CSCC(=O)N[C@@H](Cc2ccccc2)C(=O)N[C@@H](Cc2ccc(O)cc2)C(=O)N[C@@H](CC(=O)O)C1=O [Example 1030] ({CH2CO}-FYD[NHexGly]YLNRL[Ahp(2)]PVRCG-OH; thioether N-14)",
    "output unit": "nM",
    "IC50": 34.5
  },
  {
    "compound": "CCCCCCN1CC(=O)N[C@@H](Cc2ccc(O)cc2)C(=O)N[C@@H](CCCCC)C(=O)NCC(=O)N[C@@H](CCCNC(N)=O)C(=O)N[C@@H](CC(C)C)C(=O)N[C@@H](CCCCC)C(=O)N2CCC[C@H]2C(=O)N[C@@H](C(C)C)C(=O)N[C@@H](CO)C(=O)N[C@H](C(=O)NCC(N)=O)CSCC(=O)N[C@@H](Cc2ccccc2)C(=O)N[C@@H](Cc2ccc(O)cc2)C(=O)N[C@@H](CC(=O)O)C1=O [Example 1064] ({CH2CO}-FYD[NHexGly]Y[Ahp(2)]G[Cit]L[Ahp(2)]PVSCG-NH2; thioether N-14)",
    "output unit": "nM",
    "IC50": 9.3
  }
]

* * *

- measurement target: mouse VISTA (mVISTA) (Mus musculus, UniProt Q9D659)
- Construct: expressed in transfected cells; host or cells: Human embryonic kidney 293T cells
- protocol details: Cell-Based Binding High-Content Assay For mVISTA (HC CBA mVISTA)
- condition summary: cell-based binding high-content assay, mVISTA; the 16th table; read-out: HC CBA mVISTA IC50
pIC50: −log10 of the molar value. Positions of bridges follow the written chain, without caps; N, C: chain ends. Non-standard residues stand in square brackets, D forms with d. Residues, ends and D or L forms follow the SMILES beside them. 2Nal = N[C@@H](Cc1ccc2ccccc2c1)C(=O)O; Cit = NC(=O)NCCC[C@H](N)C(=O)O; Ahp(2) = CCCCC[C@H](N)C(=O)O; NMeNle = CCCC[C@H](NC)C(=O)O; NHexGly = CCCCCCNCC(=O)O; Nle = CCCC[C@H](N)C(=O)O

[
  {
    "compound": "CCCCCCN1CC(=O)N[C@@H](Cc2ccc(O)cc2)C(=O)N[C@@H](CCCC)C(=O)N[C@@H](CC(=O)O)C(=O)N[C@@H](CCCNC(=N)N)C(=O)N(C)[C@@H](CCCC)C(=O)N[C@@H](CCCCC)C(=O)N2CCC[C@H]2C(=O)N[C@@H](C(C)C)C(=O)N[C@@H](CC(=O)O)C(=O)N[C@H](C(=O)N[C@@H](CO)C(N)=O)CSCC(=O)N[C@@H](Cc2ccc3ccccc3c2)C(=O)N[C@@H](Cc2ccc(O)cc2)C(=O)N[C@@H](CC(=O)O)C1=O [Ex 1318] ({CH2CO}-[2Nal]YD[NHexGly]Y[Nle]DR[NMeNle][Ahp(2)]PVDCS-NH2; thioether N-14)",
    "pIC50": 7.92
  },
  {
    "compound": "CCCCCCN1CC(=O)N[C@@H](Cc2ccc(O)cc2)C(=O)N[C@@H](C(C)C)C(=O)NCC(=O)N[C@@H](CCCNC(=N)N)C(=O)N[C@@H](CC(C)C)C(=O)N[C@@H](CCCCC)C(=O)N2CCC[C@H]2C(=O)N[C@@H](C(C)C)C(=O)N[C@@H](CC(=O)O)C(=O)N[C@H](C(=O)N[C@@H](CCCNC(=N)N)C(N)=O)CSCC(=O)N[C@@H](Cc2ccc3ccccc3c2)C(=O)N[C@@H](Cc2ccc(O)cc2)C(=O)N[C@@H](CC(=O)O)C1=O [Ex 1312] ({CH2CO}-[2Nal]YD[NHexGly]YVGRL[Ahp(2)]PVDCR-NH2; thioether N-14)",
    "pIC50": 8.11
  },
  {
    "compound": "CCCCCCN1CC(=O)N[C@@H](Cc2ccc(O)cc2)C(=O)N[C@@H](C(C)C)C(=O)NCC(=O)N[C@@H](CCCNC(=N)N)C(=O)N[C@@H](CC(C)C)C(=O)N[C@@H](CCCCC)C(=O)N2CCC[C@H]2C(=O)N[C@@H](C(C)C)C(=O)N[C@@H](CO)C(=O)N[C@H](C(=O)NCC(=O)O)CSCC(=O)N[C@@H](Cc2ccc3ccccc3c2)C(=O)N[C@@H](Cc2ccc(O)cc2)C(=O)N[C@@H](CC(=O)O)C1=O [Ex 1277] ({CH2CO}-[2Nal]YD[NHexGly]YVGRL[Ahp(2)]PVSCG-OH; thioether N-14)",
    "pIC50": 7.63
  },
  {
    "compound": "CCCCCCN1CC(=O)N[C@@H](Cc2ccc(O)cc2)C(=O)N[C@@H](CCCCC)C(=O)NCC(=O)N[C@@H](CCCNC(N)=O)C(=O)N[C@@H](CC(C)C)C(=O)N[C@@H](CCCCC)C(=O)N2CCC[C@H]2C(=O)N[C@@H](C(C)C)C(=O)N[C@@H](CO)C(=O)N[C@H](C(=O)NCC(N)=O)CSCC(=O)N[C@@H](Cc2ccc3ccccc3c2)C(=O)N[C@@H](Cc2ccc(O)cc2)C(=O)N[C@@H](CC(=O)O)C1=O [Ex 1302] ({CH2CO}-[2Nal]YD[NHexGly]Y[Ahp(2)]G[Cit]L[Ahp(2)]PVSCG-NH2; thioether N-14)",
    "pIC50": 8.12
  }
]

Values compiled from patent US20240218022A1.
